test system: DU-145 prostate; assay: NCI tumour cell line growth inhibition, 384-well format
endpoint: log10 of TGI (log10 of the value in µM)

{"structure notation": "CC[C@H](CO)Nc1nc(NCc2ccccc2)c2ncn(C(C)C)c2n1", "study system": "DU-145 prostate", "log10 of TGI": 1.75}
{"structure notation": "NC(=O)Nc1cc(-c2cccc(F)c2)sc1C(=O)N[C@H]1CCCNC1", "study system": "DU-145 prostate", "log10 of TGI": 0.13}
{"structure notation": "NC(=O)c1ccc(-c2nc(-c3ccc4c(c3)OCO4)c(-c3ccccn3)[nH]2)cc1", "study system": "DU-145 prostate", "log10 of TGI": 1.72}
{"structure notation": "O=c1c(O)c(-c2ccc(O)c(O)c2)oc2cc(O)cc(O)c12", "study system": "DU-145 prostate", "log10 of TGI": 1.97}
{"structure notation": "Cc1cnc(CNC(=O)c2c(=O)c3ccc(N4CCCN(C)CC4)nc3n3c2sc2ccccc23)cn1", "study system": "DU-145 prostate", "log10 of TGI": 1.53}

====

system: MDA-MB-231 breast; experiment: NCI tumour cell line growth inhibition, 384-well format; in the data active = GI50 below about 0.43 µM; inactive = the rest
Classes used: 1 = active, 0 = inactive

{"structure notation": "Cc1nn(C)c(COc2ccc(N3CCN(S(=O)(=O)N(C)C)CC3)cc2)c1-c1cccc2c(CCCOc3cccc4ccccc34)c(C(=O)O)n(CCN3CCOCC3)c12", "answer label": 0}
{"structure notation": "O=c1c(O)c(-c2ccc(O)c(O)c2)oc2cc(O)cc(O)c12", "answer label": 0}
{"structure notation": "NC(=O)Nc1cc(-c2cccc(F)c2)sc1C(=O)N[C@H]1CCCNC1", "answer label": 1}
{"structure notation": "CC[C@H](CO)Nc1nc(NCc2ccccc2)c2ncn(C(C)C)c2n1", "answer label": 0}
{"structure notation": "NC(=O)c1ccc(-c2nc(-c3ccc4c(c3)OCO4)c(-c3ccccn3)[nH]2)cc1", "answer label": 0}

====

tested on: SF-268 CNS; assay: NCI tumour cell line growth inhibition, 384-well format
endpoint: TGI (µM)

{"structure notation": "NC(=O)Nc1cc(-c2cccc(F)c2)sc1C(=O)N[C@H]1CCCNC1", "unit info": "µM", "meas value": 0.91}
{"structure notation": "COc1ccc(Cl)c(Nc2nc3ccccc3nc2NS(=O)(=O)c2cccc(NC(=O)C(C)(C)N)c2)c1", "unit info": "µM", "meas value": 22.9}
{"structure notation": "Cc1[nH]c2ccc(F)cc2c1-c1nc2c3cccnc3c3ncccc3c2[nH]1", "unit info": "µM", "meas value": 0.0831}
{"structure notation": "O=c1c(O)c(-c2ccc(O)c(O)c2)oc2cc(O)cc(O)c12", "unit info": "µM", "meas value": 40.2}

====

test system: SK-OV-3 ovarian; test: NCI tumour cell line growth inhibition, 384-well format; in the data active = GI50 below about 0.43 µM; inactive = the rest
Classes used: Y = active, N = inactive

{"structure notation": "NC(=O)Nc1cc(-c2cccc(F)c2)sc1C(=O)N[C@H]1CCCNC1", "answer label": "Y"}
{"structure notation": "Cc1[nH]c2ccc(F)cc2c1-c1nc2c3cccnc3c3ncccc3c2[nH]1", "answer label": "Y"}
{"structure notation": "O=c1c(O)c(-c2ccc(O)c(O)c2)oc2cc(O)cc(O)c12", "answer label": "N"}
{"structure notation": "NC(=O)c1ccc(-c2nc(-c3ccc4c(c3)OCO4)c(-c3ccccn3)[nH]2)cc1", "answer label": "N"}

====

test system: SW-620 colon; assay: NCI tumour cell line growth inhibition, 384-well format
endpoint: TGI (µM)

{"structure notation": "O=c1c(O)c(-c2ccc(O)c(O)c2)oc2cc(O)cc(O)c12", "unit info": "µM", "qualifier operator": ">", "meas value": 100}
{"structure notation": "Cc1nn(C)c(COc2ccc(N3CCN(S(=O)(=O)N(C)C)CC3)cc2)c1-c1cccc2c(CCCOc3cccc4ccccc34)c(C(=O)O)n(CCN3CCOCC3)c12", "unit info": "µM", "qualifier operator": "=", "meas value": 10.6}
{"structure notation": "COc1ccc(Cl)c(Nc2nc3ccccc3nc2NS(=O)(=O)c2cccc(NC(=O)C(C)(C)N)c2)c1", "unit info": "µM", "qualifier operator": "=", "meas value": 22.9}
{"structure notation": "NC(=O)c1ccc(-c2nc(-c3ccc4c(c3)OCO4)c(-c3ccccn3)[nH]2)cc1", "unit info": "µM", "qualifier operator": ">", "meas value": 100}

====

system: HOP-62 NSCLC; experiment: NCI tumour cell line growth inhibition, 384-well format; in the data active = GI50 below about 0.43 µM; inactive = the rest
Classes used: 1.0 = active, 0.0 = inactive

{"structure notation": "NC(=O)c1ccc(-c2nc(-c3ccc4c(c3)OCO4)c(-c3ccccn3)[nH]2)cc1", "answer label": 0.0}
{"structure notation": "Cc1cnc(CNC(=O)c2c(=O)c3ccc(N4CCCN(C)CC4)nc3n3c2sc2ccccc23)cn1", "answer label": 1.0}
{"structure notation": "NC(=O)Nc1cc(-c2cccc(F)c2)sc1C(=O)N[C@H]1CCCNC1", "answer label": 1.0}
{"structure notation": "Cc1nn(C)c(COc2ccc(N3CCN(S(=O)(=O)N(C)C)CC3)cc2)c1-c1cccc2c(CCCOc3cccc4ccccc34)c(C(=O)O)n(CCN3CCOCC3)c12", "answer label": 0.0}

====

tested on: DU-145 prostate; assay: NCI tumour cell line growth inhibition, 384-well format; in the data active = GI50 below about 0.43 µM; inactive = the rest
Classes used: active, inactive

{"structure notation": "Cc1cnc(CNC(=O)c2c(=O)c3ccc(N4CCCN(C)CC4)nc3n3c2sc2ccccc23)cn1", "answer label": "inactive"}
{"structure notation": "Cc1[nH]c2ccc(F)cc2c1-c1nc2c3cccnc3c3ncccc3c2[nH]1", "answer label": "active"}
{"structure notation": "NC(=O)c1ccc(-c2nc(-c3ccc4c(c3)OCO4)c(-c3ccccn3)[nH]2)cc1", "answer label": "inactive"}
{"structure notation": "Cc1nn(C)c(COc2ccc(N3CCN(S(=O)(=O)N(C)C)CC3)cc2)c1-c1cccc2c(CCCOc3cccc4ccccc34)c(C(=O)O)n(CCN3CCOCC3)c12", "answer label": "inactive"}

====

Each record here notes measured TGI.
system: MDA-MB-435 melanoma; experiment: NCI tumour cell line growth inhibition, 384-well format

{"structure notation": "Cc1nn(C)c(COc2ccc(N3CCN(S(=O)(=O)N(C)C)CC3)cc2)c1-c1cccc2c(CCCOc3cccc4ccccc34)c(C(=O)O)n(CCN3CCOCC3)c12", "TGI": "14.6 µM"}
{"structure notation": "Cc1[nH]c2ccc(F)cc2c1-c1nc2c3cccnc3c3ncccc3c2[nH]1", "TGI": "> 100 µM"}
{"structure notation": "Cc1cnc(CNC(=O)c2c(=O)c3ccc(N4CCCN(C)CC4)nc3n3c2sc2ccccc23)cn1", "TGI": "> 100 µM"}
{"structure notation": "NC(=O)c1ccc(-c2nc(-c3ccc4c(c3)OCO4)c(-c3ccccn3)[nH]2)cc1", "TGI": "> 100 µM"}

====

Each record here notes measured TGI.
system: SNB-75 CNS; assay: NCI tumour cell line growth inhibition, 384-well format

{"structure notation": "NC(=O)Nc1cc(-c2cccc(F)c2)sc1C(=O)N[C@H]1CCCNC1", "TGI, µM": 1.26}
{"structure notation": "Cc1[nH]c2ccc(F)cc2c1-c1nc2c3cccnc3c3ncccc3c2[nH]1", "TGI, µM": 0.759}
{"structure notation": "O=c1c(O)c(-c2ccc(O)c(O)c2)oc2cc(O)cc(O)c12", "TGI, µM": 30.5}
{"structure notation": "CC[C@H](CO)Nc1nc(NCc2ccccc2)c2ncn(C(C)C)c2n1", "TGI, µM": 35.4}

====

Each record here notes measured GI50.
system: NCI/ADR-RES ovarian; assay: NCI tumour cell line growth inhibition, 384-well format
endpoint: GI50

{"structure notation": "NC(=O)c1ccc(-c2nc(-c3ccc4c(c3)OCO4)c(-c3ccccn3)[nH]2)cc1", "meas value": "16.4 µM"}
{"structure notation": "O=c1c(O)c(-c2ccc(O)c(O)c2)oc2cc(O)cc(O)c12", "meas value": "20 µM"}
{"structure notation": "COc1ccc(Cl)c(Nc2nc3ccccc3nc2NS(=O)(=O)c2cccc(NC(=O)C(C)(C)N)c2)c1", "meas value": "11 µM"}
{"structure notation": "Cc1nn(C)c(COc2ccc(N3CCN(S(=O)(=O)N(C)C)CC3)cc2)c1-c1cccc2c(CCCOc3cccc4ccccc34)c(C(=O)O)n(CCN3CCOCC3)c12", "meas value": "32.8 µM"}

====

system: SW-620 colon; assay: NCI tumour cell line growth inhibition, 384-well format; in the data active means GI50 below about 0.43 µM; inactive means the rest
Classes used: active, inactive

{"structure notation": "Cc1nn(C)c(COc2ccc(N3CCN(S(=O)(=O)N(C)C)CC3)cc2)c1-c1cccc2c(CCCOc3cccc4ccccc34)c(C(=O)O)n(CCN3CCOCC3)c12", "answer label": "inactive"}
{"structure notation": "Cc1cnc(CNC(=O)c2c(=O)c3ccc(N4CCCN(C)CC4)nc3n3c2sc2ccccc23)cn1", "answer label": "active"}
{"structure notation": "CC[C@H](CO)Nc1nc(NCc2ccccc2)c2ncn(C(C)C)c2n1", "answer label": "inactive"}
{"structure notation": "COc1ccc(Cl)c(Nc2nc3ccccc3nc2NS(=O)(=O)c2cccc(NC(=O)C(C)(C)N)c2)c1", "answer label": "inactive"}

Reference source for all entries: PubChem BioAssay (NCI)
